# studyTarget: IKZF3 Aiolos (Homo sapiens, UniProt Q96SW2+Q9UKT9)
# Sequence (Q9UKT9 whole entry): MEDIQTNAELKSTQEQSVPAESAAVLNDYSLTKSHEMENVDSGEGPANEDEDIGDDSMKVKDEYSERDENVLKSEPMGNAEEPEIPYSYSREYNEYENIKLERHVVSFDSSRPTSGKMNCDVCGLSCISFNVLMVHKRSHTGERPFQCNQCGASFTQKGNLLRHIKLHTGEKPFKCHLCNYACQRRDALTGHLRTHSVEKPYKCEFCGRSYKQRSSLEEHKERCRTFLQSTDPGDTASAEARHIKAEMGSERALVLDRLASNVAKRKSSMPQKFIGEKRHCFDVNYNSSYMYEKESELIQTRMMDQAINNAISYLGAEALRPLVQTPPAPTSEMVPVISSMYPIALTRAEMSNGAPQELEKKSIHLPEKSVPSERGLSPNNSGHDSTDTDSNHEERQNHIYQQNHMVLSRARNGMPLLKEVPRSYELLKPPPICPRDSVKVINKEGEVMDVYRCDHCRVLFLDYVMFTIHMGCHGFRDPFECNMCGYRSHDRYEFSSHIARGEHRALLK
# Sequence (Q96SW2 whole entry): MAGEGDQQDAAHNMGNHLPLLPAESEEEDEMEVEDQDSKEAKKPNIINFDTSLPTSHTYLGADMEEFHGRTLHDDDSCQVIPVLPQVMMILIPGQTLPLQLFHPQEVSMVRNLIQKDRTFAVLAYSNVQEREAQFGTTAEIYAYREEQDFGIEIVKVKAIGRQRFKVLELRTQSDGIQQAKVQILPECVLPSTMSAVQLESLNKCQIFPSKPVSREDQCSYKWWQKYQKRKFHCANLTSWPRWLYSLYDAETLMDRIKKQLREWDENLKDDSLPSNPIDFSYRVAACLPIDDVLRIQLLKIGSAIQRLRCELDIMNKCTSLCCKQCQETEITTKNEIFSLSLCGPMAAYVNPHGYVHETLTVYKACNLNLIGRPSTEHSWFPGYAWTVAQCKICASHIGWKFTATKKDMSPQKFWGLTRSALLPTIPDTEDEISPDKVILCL
# Sequence (Q16531 whole entry partner): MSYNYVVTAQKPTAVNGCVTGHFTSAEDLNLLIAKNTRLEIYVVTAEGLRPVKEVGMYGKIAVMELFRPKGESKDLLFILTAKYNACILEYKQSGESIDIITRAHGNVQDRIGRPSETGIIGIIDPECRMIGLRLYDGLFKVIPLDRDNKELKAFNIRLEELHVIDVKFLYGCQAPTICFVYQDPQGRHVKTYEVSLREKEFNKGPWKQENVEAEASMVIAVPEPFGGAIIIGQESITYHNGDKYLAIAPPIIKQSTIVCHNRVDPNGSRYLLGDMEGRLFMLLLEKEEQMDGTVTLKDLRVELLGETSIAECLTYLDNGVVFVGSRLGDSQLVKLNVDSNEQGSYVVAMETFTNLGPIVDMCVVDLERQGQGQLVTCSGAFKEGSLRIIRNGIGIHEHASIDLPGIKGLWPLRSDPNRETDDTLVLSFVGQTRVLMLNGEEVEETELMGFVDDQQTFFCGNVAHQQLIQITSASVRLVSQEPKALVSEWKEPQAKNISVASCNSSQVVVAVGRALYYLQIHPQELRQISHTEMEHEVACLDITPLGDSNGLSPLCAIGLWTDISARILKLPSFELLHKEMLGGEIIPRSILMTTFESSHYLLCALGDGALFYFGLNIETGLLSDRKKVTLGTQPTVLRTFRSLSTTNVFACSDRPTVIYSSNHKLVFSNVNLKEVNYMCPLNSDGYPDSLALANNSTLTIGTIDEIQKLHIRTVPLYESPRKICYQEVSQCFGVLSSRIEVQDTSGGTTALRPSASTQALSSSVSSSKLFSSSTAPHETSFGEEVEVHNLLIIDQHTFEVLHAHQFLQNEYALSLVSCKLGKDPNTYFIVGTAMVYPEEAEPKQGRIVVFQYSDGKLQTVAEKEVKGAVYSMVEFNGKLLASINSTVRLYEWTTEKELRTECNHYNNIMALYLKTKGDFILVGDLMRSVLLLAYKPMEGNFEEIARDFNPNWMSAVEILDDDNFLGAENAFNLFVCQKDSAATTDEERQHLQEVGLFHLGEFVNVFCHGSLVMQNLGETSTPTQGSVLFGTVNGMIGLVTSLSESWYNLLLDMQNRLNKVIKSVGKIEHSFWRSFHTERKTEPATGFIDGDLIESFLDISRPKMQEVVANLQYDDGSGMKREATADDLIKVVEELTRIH
# methodNotes: Jurkat Cellular Degradation Assay
# Type: cell-based
# Design: fluorescently labelled antibodies against Helios, Ikaros and Aiolos; endogenous in cells; host or cells: Jurkat cells
# conditionDetails: Jurkat cells, 24 h; 100% = complete degradation
IKZF3 Aiolos max % deg. observed of 50% or higher: 1. Under 50%: -1.

{"molecule": "Cc1cc(-c2ccc(-c3cn(C4CCC(=O)NC4=O)c(=O)o3)c(F)c2)nc(N)c1COC1CCOCC1 (centres unmarked)", "studyTarget": "IKZF3 Aiolos (Homo sapiens, UniProt Q96SW2+Q9UKT9)", "discreteLabel": -1}
{"molecule": "O=C1CCC(n2cc(-c3ccc(Br)cc3F)oc2=O)C(=O)N1 (centres unmarked) [Comparative Compound B, reference compound]", "studyTarget": "IKZF3 Aiolos (Homo sapiens, UniProt Q96SW2+Q9UKT9)", "discreteLabel": -1}
{"molecule": "CC1(C)Cc2cc(-c3ccc(-c4cn(C5CCC(=O)NC5=O)c(=O)o4)c(F)c3)nc(N)c2O1 (centres unmarked)", "studyTarget": "IKZF3 Aiolos (Homo sapiens, UniProt Q96SW2+Q9UKT9)", "discreteLabel": 1}
{"molecule": "O=C1CCC(n2cc(-c3ccccc3)oc2=O)C(=O)N1 (centres unmarked) [Comparative Compound A, reference compound]", "studyTarget": "IKZF3 Aiolos (Homo sapiens, UniProt Q96SW2+Q9UKT9)", "discreteLabel": 1}
{"molecule": "COC1CCN(Cc2ccc(-c3ccc(-c4cn(C5CCC(=O)NC5=O)c(=O)o4)c(F)c3)nc2N)CC1 (centres unmarked)", "studyTarget": "IKZF3 Aiolos (Homo sapiens, UniProt Q96SW2+Q9UKT9)", "discreteLabel": 1}

====

Let's look at some compounds and their measured log10(DC50).
# studyTarget: IKZF1 Ikaros (Homo sapiens, UniProt Q13422+Q96SW2)
# Sequence (Q13422 whole entry): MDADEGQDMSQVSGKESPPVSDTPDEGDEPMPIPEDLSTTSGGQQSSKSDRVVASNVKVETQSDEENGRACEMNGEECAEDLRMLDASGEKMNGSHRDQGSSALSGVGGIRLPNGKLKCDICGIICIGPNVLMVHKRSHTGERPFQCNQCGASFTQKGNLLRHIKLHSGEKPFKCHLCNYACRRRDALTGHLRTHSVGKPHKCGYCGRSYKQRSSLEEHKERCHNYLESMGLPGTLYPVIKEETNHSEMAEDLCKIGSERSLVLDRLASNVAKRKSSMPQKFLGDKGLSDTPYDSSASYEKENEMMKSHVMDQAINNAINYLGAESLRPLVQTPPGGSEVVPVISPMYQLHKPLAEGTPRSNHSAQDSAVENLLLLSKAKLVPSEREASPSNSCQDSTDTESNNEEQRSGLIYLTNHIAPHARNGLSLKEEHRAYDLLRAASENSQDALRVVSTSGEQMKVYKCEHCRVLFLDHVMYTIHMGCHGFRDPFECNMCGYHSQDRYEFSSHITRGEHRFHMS
# Sequence (Q96SW2 whole entry): as the sequence (Q96SW2 whole entry) above
# Sequence (Q16531 whole entry partner): as the sequence (Q16531 whole entry partner) above
# methodNotes: Human CD8+ T Cell Reprogramming Assay (method headed Human CD8+ T Cell Degradation Assay)
# Format: cell-based
# Set-up: Foxp3-BV421, HELIOS-PE-Cy7, EOS-PE, IKAROS-PECF594, AIOLOS-AF647; endogenous in cells; host or cells: human PBMC from healthy donors (CD8+ T cells gated by flow cytometry)
# conditionDetails: human PBMC, CD8+ T cells, 24 hours; vs DMSO alone
assayEndpoint: log10(DC50) (log10 of the value in nM)

{"compound": "CC1(C)Cc2cc(-c3ccc(-c4cn(C5CCC(=O)NC5=O)c(=O)o4)c(F)c3)nc(N)c2O1 (stereo not shown) [Example 1]", "log10(DC50)": 1.72}
{"compound": "Cc1cc(-c2ccc(-c3cn(C4CCC(=O)NC4=O)c(=O)o3)c(F)c2)nc(N)c1COC1CCOCC1 (stereo not shown) [Example 5]", "log10(DC50)": 2.56}
{"compound": "O=C1CCC(n2cc(-c3ccccc3)oc2=O)C(=O)N1 (stereo not shown) [Comparative Compound A, reference compound]", "log10(DC50)": 2.05}
{"compound": "CO[C@H]1C[C@H](Oc2c(C)cc(-c3ccc(-c4cn(C5CCC(=O)NC5=O)c(=O)o4)c(F)c3)nc2N)C1 (relative stereo) [Example 2]", "log10(DC50)": 2.12}
{"compound": "COC1CCN(Cc2ccc(-c3ccc(-c4cn(C5CCC(=O)NC5=O)c(=O)o4)c(F)c3)nc2N)CC1 (stereo not shown) [Example 4]", "log10(DC50)": 1.18}
{"compound": "Cc1cc(-c2ccc(-c3cn(C4CCC(=O)NC4=O)c(=O)o3)c(F)c2)nc(N)c1NCC1CCOCC1 (stereo not shown) [Example 3]", "log10(DC50)": 2.26}
